Measured glomerular width, listed per entry for reference.
system: Danio rerio Tg(wt1b:EGFP) embryo, pronephros; test: glomerular width (mean of left and right), fold change vs DMSO control; higher = wider glomerulus; conditions: 25 µM; exposure: 24-48 hpf
Where a name gives a salt, the structure may show the parent alone.
The answer should be a number; do not append a unit.

Here's what some known entries look like.
CN1CCCN=C1/C=C/c1cccs1 [Pyrantel tartrate] | 0.937
Cc1ccsc1/C=C/C1=NCCCN1C [Morantel tartrate] | 1.13
CC[C@@H](CO)NCCN[C@@H](CC)CO [Ethambutol dihydrochloride] | 0.965
Oc1ccc(OCc2ccccc2)cc1 | 0.753
C[C@@H]1C[C@H]2[C@@H]3C[C@H](F)C4=CC(=O)C=C[C@]4(C)[C@@]3(F)[C@@H](O)C[C@]2(C)[C@@]1(O)C(=O)COC(=O)C(C)(C)C [Flumethasone pivalate] | 1.04

Shift focus to the following entry.
Request: So what does the record say about glomerular width for Nc1nc(Cl)nc2c1ncn2[C@H]1C[C@H](O)[C@@H](CO)O1 ?
Result: 0.945

* * *

system: Danio rerio Tg(wt1b:EGFP) embryo, pronephros; experiment: glomerular width (mean of left and right), fold change vs DMSO control; higher = wider glomerulus; conditions: 25 µM; exposure: 24-48 hpf
Tick criterion met if glomerular width is 0.9 or greater. Tick criterion not met if glomerular width is less than 0.9.

Known results for molecules:
CCC(=O)OCC(=O)[C@@]1(OC(=O)CC)[C@@H](C)C[C@H]2[C@@H]3CCC4=CC(=O)C=C[C@]4(C)[C@@]3(Cl)[C@@H](O)C[C@@]21C [Beclomethasone dipropionate] | criterion met
C[C@H](CCC(=O)O)[C@H]1CC[C@H]2[C@@H]3[C@@H](O)C[C@@H]4C[C@H](O)CC[C@]4(C)[C@H]3CC[C@]12C [Urosiol] | criterion not met
CCn1cc(C(=O)O)c(=O)c2cnc(N3CCNCC3)nc21 [Pipemidic acid] | criterion met

Request: Hi team, for Cc1c(N(C)CS(=O)(=O)O)c(=O)n(-c2ccccc2)n1C [Dipyrone] , is the recorded glomerular width at or above 0.9?
Result: criterion met

Request: Check the entry N#Cc1cc(NC(=O)C(=O)O)c(Cl)c(NC(=O)C(=O)O)c1 [Lodoxamide] : does glomerular width equal or exceed 0.9?
Result: criterion met

Request: Dear colleague, could you confirm whether CC(=O)N(CC(O)CN(C(C)=O)c1c(I)c(C(=O)NCC(O)CO)c(I)c(C(=O)NCC(O)CO)c1I)c1c(I)c(C(=O)NCC(O)CO)c(I)c(C(=O)NCC(O)CO)c1I (configuration not stated) [Iodixanol] has glomerular width at or above 0.9?
Result: criterion met

* * *

test system: Danio rerio Tg(wt1b:EGFP) embryo, pronephros; experiment: fraction of imaged embryos annotated as normal kidney; higher = less nephrotoxic; extreme values may be limits of the assay; conditions: 25 µM; exposure: 24-48 hpf
Where a name gives a salt, the structure may show the parent alone.
Outcome measure: fraction of imaged embryos annotated as normal kidney
Lab note: write the figure by itself, no unit.

CC1(C)OC(=O)NC1=O | 0.667
C=CCc1ccccc1OCC(O)CNC(C)C (centres undefined) [Alprenolol hydrochloride] | 0.833
CN1CCOC(c2ccccc2)c2ccccc2C1 (centres undefined) [Nefopam hydrochloride] | 0.909

Request: Name the reported fraction of imaged embryos annotated as normal kidney value associated with the molecule CN(C)[C@@H]1C(O)=C(C(N)=O)C(=O)[C@@]2(O)C(O)=C3C(=O)c4c(O)ccc(Cl)c4[C@@](C)(O)[C@H]3C[C@@H]12 [Chlortetracycline hydrochloride]
Result: 0.583

* * *

test system: Danio rerio Tg(wt1b:EGFP) embryo, pronephros; test: pronephric angle neck segment to proximal convoluted tubule (mean of left and right), fold change vs DMSO control; higher = larger pronephric angle; conditions: 25 µM; exposure: 24-48 hpf
Where a name gives a salt, the structure may show the parent alone.
Listing: pronephric angle neck segment of selected molecules
Give a plain numeric answer without units written out.

Take a look at these entries with their results.
COc1cc([S+](C)[O-])ccc1-c1nc2cccnc2[nH]1 (stereo not given) | 0.982
CCc1cccc2c3c([nH]c12)C(CC)(CC(=O)O)OCC3 (stereo not given) | 1.13
Clc1ccc2c(c1)C(N1CCNCC1)=Nc1ccccc1O2 | 1.02
O=c1[nH]c(=O)n([C@H]2C[C@H](O)[C@@H](CO)O2)cc1I | 1.05
OCCN1C[C@H](O)[C@@H](O)[C@H](O)[C@H]1CO | 0.982

Request: Fill in: pronephric angle neck segment of COc1cccc2c1C(=O)c1c(O)c3c(c(O)c1C2=O)C[C@@](O)(C(=O)CO)C[C@@H]3O[C@H]1C[C@H](N)[C@@H](O)[C@H](C)O1 [Epirubicin hydrochloride] is ___
Result: 0.963

Request: I'd like to know its pronephric angle neck segment. The molecule in question is Clc1ccc2c(c1)CCc1cccnc1C2=C1CCNCC1
Result: 1.06

Request: Which pronephric angle neck segment is listed for CCOC(=O)[C@H](CCc1ccccc1)N[C@@H](C)C(=O)N1Cc2ccccc2C[C@H]1C(=O)O [Quinapril hydrochloride] ?
Result: 0.99

Request: I am curious: what pronephric angle neck segment value has been reported for Oc1c(I)cc(Cl)c2cccnc12 ?
Result: 1.59

Request: Any idea what its pronephric angle neck segment is? The molecule is C[C@]12CC[C@@H]3c4ccc(O)cc4CC[C@H]3[C@@H]1C[C@@H](O)[C@@H]2O
Result: 1.03

* * *

system: Danio rerio Tg(wt1b:EGFP) embryo, pronephros; assay: pronephric angle neck segment to proximal convoluted tubule (mean of left and right), fold change vs DMSO control; higher = larger pronephric angle; conditions: 25 µM; exposure: 24-48 hpf
Counter-ions that a name gives are not always drawn.
Note to self: values exactly at 1 are T. So pronephric angle neck segment at or above 1 is T, below is F.

CN1CCCN=C1/C=C/c1cccc(O)c1 [Oxantel pamoate] | T
OCCN1CCN(CCCN2c3ccccc3Sc3ccc(C(F)(F)F)cc32)CC1 [Fluphenazine dihydrochloride] | F
CN(C)[C@@H]1C(O)=C(C(=O)NCNCCCC[C@H](N)C(=O)O)C(=O)[C@@]2(O)C(O)=C3C(=O)c4c(O)cccc4[C@@](C)(O)[C@H]3C[C@@H]12 | F
Clc1ccc(C(c2ccccc2Cl)C(Cl)Cl)cc1 (stereo not drawn) | T

Shifting focus to the molecule that follows.
Request: Reported pronephric angle neck segment reaches at least 1 for CC(C)(C)NC[C@@H](O)COc1cccc2c1CCCC2=O [(+) -Levobunolol hydrochloride] ?
Result: T

* * *

test system: Danio rerio Tg(wt1b:EGFP) embryo, pronephros; assay: glomerular separation, fold change vs DMSO control; higher = glomeruli further apart (abnormal); conditions: 25 µM; exposure: 24-48 hpf
Structures can show the parent of a compound that is named as a salt.
Outcome measure: glomerular separation
Output spec: single numeric token, no unit.

These recorded examples may help you get a feel for the data.
CC(N)CCCC(C)(C)O (stereo unspecified) [Heptaminol hydrochloride] | 1.19
NC(=O)OCC(COC(N)=O)c1ccccc1 [Felbamate] | 0.918
CC(C)c1c(C(=O)Nc2ccccc2)c(-c2ccccc2)c(-c2ccc(F)cc2)n1CC[C@@H](O)C[C@@H](O)CC(=O)O | 3.42
CC12CC3CC(C)(C1)CC(N)(C3)C2 [Memantine Hydrochloride] | 1

Request: Reported glomerular separation for COc1ccnc(C[S+]([O-])c2nc3cc(OC(F)F)ccc3[nH]2)c1OC (stereo unspecified) [Pantoprazole sodium] : what is it?
Result: 1.04

Request: # input compound: COc1ccccc1N1CCN(CCCNc2cc(=O)n(C)c(=O)n2C)CC1 [Urapidil hydrochloride] ; wanted: its glomerular separation
Result: 1.09

Request: If you can, please state the reported glomerular separation value of CCN1CCC[C@H]1CNC(=O)c1c(OC)ccc(Br)c1OC [Remoxipride Hydrochloride] .
Result: 0.777

Request: Recorded glomerular separation of CC[C@]12CCCN3CCc4c(n(c5ccccc45)[C@@](O)(C(=O)OC)C1)[C@@H]32 , please.
Result: 0.967

Request: What value of glomerular separation has been recorded for this entry: CN[C@@H]1[C@@H](O[C@H]2O[C@H](CO)[C@@H](N)[C@H](O)[C@H]2O)OC2C[C@@H](N)[C@@H](O[C@H]3[C@H](O)[C@@H](O)[C@H](N)C[C@@H]3N)OC2[C@@H]1O (stereo partly specified)
Result: 1.1

Request: Name the reported glomerular separation value associated with the compound CCC1(c2ccccc2)C(=O)NCNC1=O
Result: 0.835

Request: Suppose we examine the compound C#C[C@]1(O)CC[C@H]2[C@@H]3CCc4cc(OC)ccc4[C@H]3CC[C@@]21C ; what glomerular separation value has been reported?
Result: 0.896

Request: # query: glomerular separation of entry CCn1nc(C(=O)O)c(=O)c2cc3c(cc21)OCO3
Result: 1.07

Request: Can you share its glomerular separation? I mean this compound: COc1c(N2CCNC(C)C2)c(F)cc2c(=O)c(C(=O)O)cn(C3CC3)c12 (stereo unspecified)
Result: 0.71

Request: # get_value(readout='glomerular separation', item= C=CCOc1ccccc1OCC(O)CNC(C)C (stereo unspecified) [Oxprenolol hydrochloride] )
Result: 0.751

Request: Bench note: what glomerular separation did CC(C)(C(=O)O)c1ccc(C(O)CCCN2CCC(C(O)(c3ccccc3)c3ccccc3)CC2)cc1 (stereo unspecified) [Fexofenadine hydrochloride] show?
Result: 0.859

Request: What measured glomerular separation goes with Nc1ccc(S(N)(=O)=O)cc1 [Sulfanilamide] ?
Result: 0.646
